System: Staphylococcus aureus
Assay: Antibacterial activity against methicillin-resistant Staphylococcus aureus clinical isolate 306/08 after 18 hrs by twofold serial agar dilution technique
Format: functional
Settings: clinical isolate 306/08, 18 h
Quantity Measured: MIC (µg/mL)
Your answer should be a plain number; it is taken to be in µg/mL.

Q: So what's the measured MIC for this one? S=C(Nc1ccc(I)cc1)Nc1nc[nH]n1
Result: 50

Q: So what's the measured MIC for this one? S=C(Nc1ccc(Br)cc1)Nc1nc[nH]n1
Result: 50

Q: So what's the measured MIC for this one? S=C(Nc1nc[nH]n1)Nc1ccccc1Br
Result: 50

Q: So what's the measured MIC for this one? Fc1cccc(NC(=S)Nc2nc[nH]n2)c1
Result: 12.5

Q: So what's the measured MIC for this one? S=C(Nc1ccc(Cl)cc1)Nc1nc[nH]n1
Result: 25

Q: So what's the measured MIC for this one? Fc1ccc(NC(=S)Nc2nc[nH]n2)cc1
Result: 50

Q: So what's the measured MIC for this one? S=C(Nc1ccccc1)Nc1nc[nH]n1
Result: 50

* * *

Test system: Micrococcus luteus
Assay: Antibacterial activity against Micrococcus luteus ATCC 10240 after 18 hrs by twofold serial agar dilution technique
Format: functional
Settings: ATCC 10240, 18 h
# if measured MIC < 20 µg/mL: true (1)  # else: false (0)

Q: A record lists Fc1cccc(NC(=S)Nc2nc[nH]n2)c1 . Is its MIC below 20 µg/mL?
Result: false (0)

Q: A record lists S=C(Nc1ccccc1)Nc1nc[nH]n1 . Is its MIC below 20 µg/mL?
Result: false (0)

Q: A record lists O=C(O)c1cn(C2CC2)c2cc(N3CCNCC3)c(F)cc2c1=O [CIPROFLOXACIN] . Is its MIC below 20 µg/mL?
Result: true (1)

Q: A record lists Fc1ccccc1NC(=S)Nc1nc[nH]n1 . Is its MIC below 20 µg/mL?
Result: false (0)

Q: A record lists S=C(Nc1nc[nH]n1)Nc1ccccc1Br . Is its MIC below 20 µg/mL?
Result: true (1)

Q: A record lists S=C(Nc1ccc(Cl)cc1)Nc1nc[nH]n1 . Is its MIC below 20 µg/mL?
Result: false (0)

Q: A record lists S=C(Nc1ccc(I)cc1)Nc1nc[nH]n1 . Is its MIC below 20 µg/mL?
Result: true (1)

Q: A record lists S=C(Nc1ccc(Br)cc1)Nc1nc[nH]n1 . Is its MIC below 20 µg/mL?
Result: true (1)

Q: A record lists Fc1ccc(NC(=S)Nc2nc[nH]n2)cc1 . Is its MIC below 20 µg/mL?
Result: true (1)

* * *

System: Micrococcus luteus
Assay: Antibacterial activity against Micrococcus luteus ATCC 9341 at 400 ug/disc after 18 hrs by disc diffusion method
Assay type: functional
Settings: ATCC 9341, 18 h, read-out: DIZ
If the reported zone of inhibition at 400 µg/disc equals or exceeds 20 mm, assign yes (1). If not, assign no (0).

Q: zone of inhibition at 400 µg/disc >= 20 mm for S=C(Nc1ccccc1)Nc1nc[nH]n1 ?
Result: no (0)

Q: zone of inhibition at 400 µg/disc >= 20 mm for S=C(Nc1ccc(Cl)cc1)Nc1nc[nH]n1 ?
Result: yes (1)

Q: zone of inhibition at 400 µg/disc >= 20 mm for S=C(Nc1nc[nH]n1)Nc1ccccc1Br ?
Result: no (0)

Q: zone of inhibition at 400 µg/disc >= 20 mm for Fc1cccc(NC(=S)Nc2nc[nH]n2)c1 ?
Result: yes (1)

Q: zone of inhibition at 400 µg/disc >= 20 mm for S=C(Nc1cccc(Br)c1)Nc1nc[nH]n1 ?
Result: no (0)

Q: zone of inhibition at 400 µg/disc >= 20 mm for Fc1ccccc1NC(=S)Nc1nc[nH]n1 ?
Result: yes (1)

Q: zone of inhibition at 400 µg/disc >= 20 mm for S=C(Nc1ccc(I)cc1)Nc1nc[nH]n1 ?
Result: no (0)

Q: zone of inhibition at 400 µg/disc >= 20 mm for S=C(Nc1ccc(Br)cc1)Nc1nc[nH]n1 ?
Result: yes (1)

Q: zone of inhibition at 400 µg/disc >= 20 mm for Fc1ccc(NC(=S)Nc2nc[nH]n2)cc1 ?
Result: no (0)
